Assay: Increase in insulin releasing activity in Syrian golden hamster HIT-T15 cells at 1 uM after 1 hr relative to control
Format: functional, Mesocricetus auratus
Entry flag: condition met if Activity reaches 40%; condition not met if it does not.

{"Compound": "CC(C)[C@H]1CC[C@H](C(=O)N[C@@H](Cc2ccccc2)C(=O)O)CC1 [(S)-NATEGLINIDE]", "Label class": "condition not met"}
{"Compound": "CCCCOc1ccc(C[C@H](NC(=O)[C@H]2CC[C@H](C(C)C)CC2)C(=O)O)cc1", "Label class": "condition met"}
{"Compound": "O=C(O)[C@H](CC(=O)N1C[C@H]2CCCC[C@H]2C1)Cc1ccccc1 [MITIGLINIDE]", "Label class": "condition met"}
{"Compound": "CC(C)[C@H]1CC[C@H](C(=O)N[C@H](Cc2ccc(OCc3ccc(C(F)(F)F)cc3)cc2)C(=O)O)CC1", "Label class": "condition not met"}
{"Compound": "Cc1oc(-c2ccccc2)nc1CCOc1ccc(C[C@H](NC(=O)[C@H]2CC[C@H](C(C)C)CC2)C(=O)O)cc1", "Label class": "condition met"}
{"Compound": "CCOc1ccc(C[C@H](NC(=O)[C@H]2CC[C@H](C(C)C)CC2)C(=O)O)cc1", "Label class": "condition met"}
{"Compound": "Cc1oc(-c2ccccc2)nc1CCOc1ccc(C[C@@H](NC(=O)[C@H]2CC[C@H](C(C)C)CC2)C(=O)O)cc1", "Label class": "condition met"}
{"Compound": "CC(C)[C@H]1CC[C@H](C(=O)N[C@H](Cc2ccc(OCCn3ccc4ccccc43)cc2)C(=O)O)CC1", "Label class": "condition not met"}
